- PROTOCOL CONDITIONS: in n-hexane, 298.15 K
QUANTITY NAME: solubility (mole fraction)

Answered cases to consult:
SMILES DATA: Cc1ccc(NC2=NCCC3(CCCCC3)S2)cc1
solubility (mole fraction): 0.000326
--
SMILES DATA: O=C(NC1=NCCC2(CCCCC2)S1)c1ccccc1
solubility (mole fraction): 0.000153

a. CC(C)c1ccc(NC2=NCCC3(CCCCC3)S2)cc1
b. c1ccc(NC2=NCCC3(CCCCC3)S2)cc1
c. Brc1ccc(NC2=NCCC3(CCCCC3)S2)cc1
d. COc1ccc(NC2=NCCC3(CCCCC3)S2)cc1
e. FC(F)(F)c1ccc(NC2=NCCC3(CCCCC3)S2)cc1
Q) Ordering: ascending solubility (mole fraction). # respond with the labels, arranged in the requested order
A) c, d, e, a, b

---

- PROTOCOL CONDITIONS: in n-hexane, 315.15 K
QUANTITY NAME: solubility (mole fraction)

Answered cases to consult:
SMILES DATA: Cc1ccc(NC2=NCCC3(CCCCC3)S2)cc1Cl
TEST VALUE: 2.68e-05
//
SMILES DATA: c1ccc(NC2=NCCC3(CCCCC3)S2)cc1
TEST VALUE: 0.00215
//
SMILES DATA: CC(=O)c1ccc(NC2=NCCC3(CCCCC3)S2)cc1
TEST VALUE: 3.95e-05
//
SMILES DATA: FC(F)(F)c1ccc(NC2=NCCC3(CCCCC3)S2)cc1
TEST VALUE: 0.00057
//
SMILES DATA: Cc1ccc(NC2=NCCC3(CCCCC3)S2)cc1
TEST VALUE: 0.00052

A. CC(C)c1ccc(NC2=NCCC3(CCCCC3)S2)cc1
B. COc1ccc(NC2=NCCC3(CCCCC3)S2)cc1
Q) // which entry has the larger solubility (mole fraction) value, A or B ? Record your answer as the label of the chosen record.
A) A
(A: 0.0011, B: 0.000357)

---

- PROTOCOL CONDITIONS: in n-hexane, 298.15 K
QUANTITY NAME: solubility (mole fraction)

SMILES DATA: Cc1ccc(NC2=NCCC3(CCCCC3)S2)cc1Cl
solubility (mole fraction): 1.15e-05
--
SMILES DATA: CC(=O)c1ccc(NC2=NCCC3(CCCCC3)S2)cc1
solubility (mole fraction): 1.93e-05

1. CCc1ccc(NC2=NCCC3(CCCCC3)S2)cc1
2. Clc1ccc(NC2=NCCC3(CCCCC3)S2)cc1
Q) Compare solubility (mole fraction): is it lower for 1 or for 2 ? Record your answer as the label of the chosen record.
A) 2

---

- PROTOCOL CONDITIONS: in n-hexane, 293.15 K
QUANTITY NAME: solubility (mole fraction)

P. Clc1ccc(NC2=NCCC3(CCCCC3)S2)cc1
Q. O=C(NC1=NCCC2(CCCCC2)S1)c1ccccc1
Q) Compare solubility (mole fraction): is it lower for P or for Q ? Record your answer as the label of the chosen record.
A) P
(P: 6.09e-05, Q: 0.000124)

I. Cc1ccc(NC2=NCCC3(CCCCC3)S2)cc1Cl
II. CCc1ccc(NC2=NCCC3(CCCCC3)S2)cc1
III. Brc1ccc(NC2=NCCC3(CCCCC3)S2)cc1
IV. CC(=O)c1ccc(NC2=NCCC3(CCCCC3)S2)cc1
Q) Ranking field: solubility (mole fraction); order: falling. # respond with the labels, arranged in the requested order
A) II, III, IV, I
(II: 0.000365, III: 2.46e-05, IV: 1.56e-05, I: 8.6e-06)

I. Cc1ccc(NC2=NCCC3(CCCCC3)S2)cc1
II. COc1ccc(NC2=NCCC3(CCCCC3)S2)cc1
III. CC(C)c1ccc(NC2=NCCC3(CCCCC3)S2)cc1
IV. c1ccc(NC2=NCCC3(CCCCC3)S2)cc1
Q) Ranking field: solubility (mole fraction); order: falling. # respond with the labels, arranged in the requested order
A) IV, III, I, II
